Ref: PubChem BioAssay (NCI)

- System: COLO 205 colon
- Assay Protocol: NCI-60 one-dose screen, 48 h
- Experimental Setup: 10 µM unless noted
- Protocol: Cells are grown in 96 well plates and exposed to the test compound for 48 hours. Compounds are tested at a single concentration, which is 10^-5 M for most compounds. The reported endpoint is percent growth (GI% or GIPRCNT), where numbers from 0 - 100% represent growth inhibition, and numbers from -100% - 0 represent cell death. For example, a value of 40 represents 60% growth inhibition. A value of 0 means no net growth occurred over the course of the experiment. […]
Compounds without any hit were thinned out: in the full panel of roughly 83,000, 20% have a hit. The source made the active and inactive calls. The calls were made as follows: active = growth percent below 10; inactive = the rest.
Outcomes: true (active), false (inactive)

Compound: CN1C(=O)N(C)C2C1NN=c1s/c(=C\c3ccc([N+](=O)[O-])cc3)c(=O)n12 (stereo not given)
Assay Target: COLO 205 colon
Discrete Label: false

Compound: COc1nccc2cc3c(=O)n4c(cc5ccccc54)c(=O)n3c12
Assay Target: COLO 205 colon
Discrete Label: false

Compound: CC1=C(C(=O)OCC2CCN(C(=O)OC(C)(C)C)CC2)[C@H](c2cccc(C#N)c2)C2=C(CC(C)(C)CC2=O)N1
Assay Target: COLO 205 colon
Discrete Label: false

Compound: CN1C(=O)N(C)C2(c3ccccc3)OC(=S)NC12c1ccccc1 (stereo not given)
Assay Target: COLO 205 colon
Discrete Label: false

Compound: COc1cc(CNC(=O)c2ccsc2Nc2ccnc(C(F)(F)F)c2)ccc1O
Assay Target: COLO 205 colon
Discrete Label: false

Compound: NNC(=O)CNC(=O)Nc1n[nH]c(=S)s1
Assay Target: COLO 205 colon
Discrete Label: false

Compound: CCOc1ccccc1CN1CCc2nc3cc(C(C)(C)C)[nH]n3c(=O)c2C1
Assay Target: COLO 205 colon
Discrete Label: false

Compound: COc1cc(C(C)n2cc(-c3ccccc3)nn2)ccc1OC1CCCCC1 (stereo not given)
Assay Target: COLO 205 colon
Discrete Label: false

Compound: Cc1ccc2[nH]c(=O)cc(-n3nncc3Cn3c4ccccc4c4ccccc43)c2c1
Assay Target: COLO 205 colon
Discrete Label: false

Compound: O=C(N/N=C/c1ccccc1Cl)C(=O)Nc1cccc(C(F)(F)F)c1
Assay Target: COLO 205 colon
Discrete Label: false

Compound: COC(=O)[C@H]1CCCN1C(=O)[C@H]1CCCN1C(=O)[C@H](Cc1c[nH]c2ccccc12)NC(=S)Nc1cc(C(F)(F)F)cc(C(F)(F)F)c1
Assay Target: COLO 205 colon
Discrete Label: true

Compound: Clc1ccc(Nc2nnc(-c3ccc4c(c3)OCO4)o2)cc1
Assay Target: COLO 205 colon
Discrete Label: false

Compound: COc1cccc(C(=O)Cn2cc(/C=C(\C#N)S(=O)(=O)c3ccccc3)c3ccccc32)c1
Assay Target: COLO 205 colon
Discrete Label: false

Compound: C1=CC2(C=C1)OC21CCC2(C=CC3(C2)OC3C2CCCCC2)CC1 (stereo not given)
Assay Target: COLO 205 colon
Discrete Label: false

Compound: c1ccc(CNc2nc(Nc3ccccc3)nc3ccccc23)cc1
Assay Target: COLO 205 colon
Discrete Label: false

Compound: COc1cccc2cc(N(C)c3nc(C)nc4ccsc34)ccc12
Assay Target: COLO 205 colon
Discrete Label: true

Compound: O=S(=O)(c1ccccc1)n1cc2c(c1-c1ccccc1)CCc1sc(Nc3ccccc3)nc1-2
Assay Target: COLO 205 colon
Discrete Label: false

Compound: Fc1cccc(COc2ccc(Nc3ncnc4onc(-c5ccccc5)c34)cc2)c1
Assay Target: COLO 205 colon
Discrete Label: true

Compound: N#C/C(=C\c1c(-c2ccccc2)[nH]c2ccccc12)C(=O)c1ccccc1
Assay Target: COLO 205 colon
Discrete Label: false

Compound: Oc1[nH]c2ccccc2c1N=Nc1nnc2n1N=C(c1ccccc1)CS2
Assay Target: COLO 205 colon
Discrete Label: false

* * *

- System: NCI-H460 lung
- Assay Protocol: NCI-60 one-dose screen, 48 h (100 = growth as untreated, 0 = no growth, -100 = all killed)
- Experimental Setup: 10 µM unless noted
This is part of a sample that, as a whole, favours compounds with a hit. Of some 83,000 tested, about 20% had one in any assay.
Catalogue of molecules with associated growth

Molecule: O=NN(Cc1cccnc1)C(=O)NC1CCCCC1
Assay Target: NCI-H460 lung
Unit String: %
growth: 109

Molecule: O=C(c1nc2ccccc2[nH]1)C1C(c2ccc(F)cc2)C2CC3CCCCC3N2[C@@]12C(=O)Nc1ccc(Cl)cc12 (stereo partly specified)
Assay Target: NCI-H460 lung
Unit String: %
growth: 21.4

Molecule: CCOC(=O)c1ccc(N=Cc2sc(=O)[nH]c2O)cc1
Assay Target: NCI-H460 lung
Unit String: %
growth: 101

Molecule: COc1ccc(C2NCCc3c2[nH]c2ccccc32)cc1CN1CCN(c2ccc(F)cc2)CC1 (stereo unspecified)
Assay Target: NCI-H460 lung
Unit String: %
growth: 5.7

Molecule: COc1cc2cc3c(=O)n4c(cc5cc(OC)ncc54)c(=O)n3c2cn1
Assay Target: NCI-H460 lung
Unit String: %
growth: 107

Molecule: CCOC(=O)C1(Cc2ccccc2)CCN(Cc2cccc(OC)c2O)CC1
Assay Target: NCI-H460 lung
Unit String: %
growth: -13

* * *

- Tested on: UACC-257 melanoma
- Assay Protocol: NCI-60 one-dose screen, 48 h (100 = growth as untreated, 0 = no growth, -100 = all killed)
- Experimental Setup: 10 µM unless noted
The panel holds about 83,000 compounds, 20% with a hit somewhere; the sample as a whole holds those more often. Calls of active or inactive are those of the source. How the source made its calls: active means growth percent below 10; inactive means the rest.
Experimental Endpoint: growth

Molecule: Oc1c(C(Nc2ccccn2)c2cccc(Oc3ccccc3)c2)ccc2cccnc12 (stereo not drawn)
Reported: -77.1% (active)

Molecule: CC1(O)COCCCCOc2c(CN)cccc2NC(=O)c2nc(cnc2N)-c2ccc(cc2)S(=O)(=O)C(C)(C)C1 (stereo not drawn)
Reported: -66.4% (active)

Molecule: Cc1ccc(C)c(-c2csc(Nc3ccc(C)c(C)c3)n2)c1
Reported: -58.6% (active)

Molecule: COc1cc(/C=C2\CN(C)C/C(=C\c3cc(CN4CCCCC4)c(O)c(OC)c3)C2=O)cc(CN2CCCCC2)c1O
Reported: 76.9% (inactive)

Molecule: COC(=O)[C@H](NC(=O)C1(C)CCC[C@]2(C)[C@H]3C[C@H]4C(C(C)C)=C[C@]3(CC[C@@H]12)[C@@H]1C(=O)CCC(=O)[C@@H]14)C(C)C (stereo partly drawn)
Reported: 104% (inactive)

Molecule: COc1cccc(-c2nn(C)c3sc(C(=O)NCCN4CCN(c5ccccc5F)CC4)cc23)c1
Reported: -67.3% (active)

Molecule: CCOC(=O)c1cc2c(n1Cc1cc(OC)c(OC)c(OC)c1)-c1oncc1CCC2
Reported: 70.7% (inactive)

Molecule: O=C1NC(=S)NC(=O)C1=Cc1cn(Cc2cn(Cc3cccc4ccccc34)nn2)c2ccccc12
Reported: 103% (inactive)

Molecule: O=c1c2cccc(F)c2sc2c(N3CCNCC3)nc3ccccc3c12
Reported: 8.99% (active)

Molecule: O=C(c1nc2ccccc2[nH]1)C1C(c2ccc(F)cc2)C2CC3CCCCC3N2[C@@]12C(=O)Nc1ccc(Cl)cc12 (stereo partly drawn)
Reported: 58.9% (inactive)

Molecule: O=c1oc2ccc(Br)cc2c(=O)n1-c1ccc(Cl)cc1F
Reported: -10.6% (active)

Molecule: OCCNc1nc(Nc2ccc(C3=NN(c4cc(Cl)cc(Cl)c4)C(c4ccc(C(F)(F)F)cc4)C3)cc2)nc(N2CCOCC2)n1 (stereo not drawn)
Reported: 94.5% (inactive)

Molecule: COc1ccc(Cn2c(Br)c3c(c2Br)-c2nc(NC(=O)c4ccc(OC)cc4)sc2CC3)cc1
Reported: 78.5% (inactive)

Molecule: O=C(Nc1ccc(I)cc1F)c1cc(Cl)ccc1O
Reported: -18.1% (active)

Molecule: O=C(N/N=C/c1ccccc1O)C(=O)Nc1ccc(F)cc1
Reported: 27.2% (inactive)

Molecule: COc1ccc(Cn2c(Br)c3c(c2-c2cc(OC)c(OC)c(OC)c2)CCc2sc(NC(=O)c4ccc(OC)cc4)nc2-3)cc1
Reported: 116% (inactive)

Molecule: Oc1ccc(-c2nc(-c3ccc4oc5ccc(-c6[nH]c(-c7ccc(O)cc7)nc6-c6ccccc6)cc5c4c3)c(-c3ccccc3)[nH]2)cc1
Reported: 34.5% (inactive)

Molecule: CCN1C(=O)N(c2ccccc2)C2Nn3c(s/c(=C4\C(=O)N(C(C)C)c5ccccc54)c3=O)=NC21 (stereo not drawn)
Reported: 104% (inactive)

* * *

Catalogue of molecules with associated growth
- Tested on: SNB-75 CNS
- Assay Protocol: NCI-60 one-dose screen, 48 h (100 = growth as untreated, 0 = no growth, -100 = all killed)
- Experimental Setup: 10 µM unless noted
The panel holds about 83,000 compounds, 20% with a hit somewhere; the sample as a whole holds those more often.
Experimental Endpoint: growth (%)

Molecule: Cc1ccc(S(=O)(=O)c2c(COC(=O)c3cccc(C)c3)c(-c3ccccc3)nn2C)cc1
Reported: 107
--
Molecule: CCOC(=O)c1ccc2[nH]c(-c3ccccc3)cc(=O)c2c1
Reported: 72.3
--
Molecule: COc1ccccc1N1C(=N)S/C(=C\c2ccc(OCc3ccccc3F)cc2)C1=O
Reported: 76
--
Molecule: N#C/C(=C\c1c(-c2ccccc2)[nH]c2ccccc12)C(=O)c1ccccc1
Reported: 16.8
--
Molecule: Cc1ccc(C2CC(c3ccc(Nc4nc(NCCO)nc(Nc5ccc(Cl)cc5)n4)cc3)=NN2c2cc(Cl)cc(Cl)c2)cc1 (stereo unspecified)
Reported: 85.2
--
Molecule: COc1ccccc1C(=O)/C=C/c1ccccc1
Reported: 88.5
--
Molecule: COc1ccc(-c2nc(N3CCN(C(=O)C4CCCCC4)CC3)c3c4c(sc3n2)CCCC4)cc1
Reported: -66.3
--
Molecule: CN(C)c1ccc(N=Cc2ccc(N3CCOCC3)cc2)cc1
Reported: 81.3
--
Molecule: C=C(C)CCC(C)N1CCC(N2CCC(C(=O)NCCc3ccccc3)CC2)CC1 (stereo unspecified)
Reported: 105
--
Molecule: COc1ccc(-c2nocc2-c2cccs2)cc1
Reported: 89.4
--
Molecule: CC(C)[C@H](NC(=O)Cn1cc(C(=O)O)nn1)C(=O)O
Reported: 104
--
Molecule: O=C(Nc1nc2c(s1)CCc1c-2c(Br)n(Cc2ccccc2)c1Br)c1ccccc1
Reported: -10.7
--
Molecule: COc1ccc(-c2c(-c3ccc(OC)c(O)c3)cnc3ncnn23)cc1
Reported: 99.6
--
Molecule: N#C/C(=C1\SC(=O)CN1c1ccccc1)c1nc2ccccc2s1
Reported: 88.7
--
Molecule: COc1cc(C2C(C#N)=C(N)OC3=C2C(=O)c2ccccc2C3=O)cc(OC)c1OC (stereo unspecified)
Reported: 7.57
--
Molecule: COc1nccc2cc3c(=O)n4c(cc5ccccc54)c(=O)n3c12
Reported: 89.2
--
Molecule: CCCCN1CCN(c2ccc3nc(-c4ccc5nc(-c6ccc(C(F)(F)F)cc6)[nH]c5c4)[nH]c3c2)CC1
Reported: -93.6
--
Molecule: COc1cc2cc3c(=O)n4c(cc5cc(OC)ncc54)c(=O)n3c2cn1
Reported: 94.2
--
Molecule: O=C1c2cc(Br)ccc2Oc2cc([N+](=O)[O-])ccc2N1c1ccc(I)cc1F
Reported: 89.5
--
Molecule: O=C(/C=C/c1ccc(F)cc1)c1ccc(Nc2nc(NCCO)nc(Nc3ccc(Cl)cc3)n2)cc1
Reported: 81.4
--
Molecule: COc1ccc(C(=O)C2CC2c2ccc(Cl)cc2)cc1 (stereo unspecified)
Reported: 75.6
